Origin of values: patent US20080161288A1

- SYSTEM_UNDER_TEST: bovine beta-2 adrenoceptor (Bos taurus, UniProt Q28044)
- Construct: expressed in transfected cells; host or cells: CHO cells
- Sequence (Q28044 whole entry): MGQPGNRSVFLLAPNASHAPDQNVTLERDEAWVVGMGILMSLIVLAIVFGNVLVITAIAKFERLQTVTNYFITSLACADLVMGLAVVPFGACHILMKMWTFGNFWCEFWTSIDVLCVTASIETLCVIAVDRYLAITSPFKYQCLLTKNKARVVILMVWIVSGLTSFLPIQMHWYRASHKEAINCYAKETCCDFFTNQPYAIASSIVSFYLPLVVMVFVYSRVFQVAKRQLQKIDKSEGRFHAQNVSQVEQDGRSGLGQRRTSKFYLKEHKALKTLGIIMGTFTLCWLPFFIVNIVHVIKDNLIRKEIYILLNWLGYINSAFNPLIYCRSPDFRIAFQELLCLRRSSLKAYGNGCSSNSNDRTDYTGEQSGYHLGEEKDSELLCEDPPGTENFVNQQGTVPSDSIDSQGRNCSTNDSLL
- MEASUREMENT_NOTES: cAMP assay in CHO cells transfected with the bovine beta-2 adrenoceptor
- Assay type: cell-based
- ASSAY_SETUP: cAMP (DiscoveRx Hit Hunter cAMP II) in CHO cells transfected with bovine beta-2 adrenoceptor, 30 minutes with compound, 0.5 mM IBMX
EXPERIMENTAL_ENDPOINT: EC50 (nM)

Worked examples, 5 compounds total:
{"COMPOUND": "CC(CCc1ccc(NS(=O)(=O)c2ccccc2)cc1)NC1CCn2c(=O)[nH]c3cccc(c32)C1O (single isomer, unassigned)", "MEASURE_UNIT": "nM", "NUMERIC_VALUE": 156}
{"COMPOUND": "CC(CCc1ccccc1)N[C@@H]1CCn2c(=O)[nH]c3cccc(c32)[C@H]1O (single isomer, unassigned) [Example 9d]", "MEASURE_UNIT": "nM", "NUMERIC_VALUE": 5.9}
{"COMPOUND": "CC(C=Cc1cccc(O)c1)NC1CCn2c(=O)[nH]c3cccc(c32)C1O (centres unmarked)", "MEASURE_UNIT": "nM", "NUMERIC_VALUE": 13.3}
{"COMPOUND": "CC(CCc1ccc(NS(=O)(=O)C(F)(F)F)cc1)NC1CCn2c(=O)[nH]c3cccc(c32)C1O (single isomer, unassigned)", "MEASURE_UNIT": "nM", "NUMERIC_VALUE": 234}
{"COMPOUND": "CC(CCc1cc(F)ccc1O)N[C@@H]1CCn2c(=O)[nH]c3cccc(c32)[C@H]1O (single isomer, unassigned) [Example 7a]", "MEASURE_UNIT": "nM", "NUMERIC_VALUE": 77.7}

P: CC(CCc1cc(F)c(F)cc1O)N[C@@H]1CCn2c(=O)[nH]c3cccc(c32)[C@H]1O (mixture of isomers) [Example 11a]
Q: CC(CCc1ccc(OC(C)C)cc1)N[C@@H]1CCn2c(=O)[nH]c3cccc(c32)[C@H]1O (mixture of isomers)
R: CC(CCc1ccc(C(=O)O)cc1)NC1CCn2c(=O)[nH]c3cccc(c32)C1O (single isomer, unassigned)
S: CC(CCc1cccc(C(F)(F)F)c1)N[C@@H]1CCn2c(=O)[nH]c3cccc(c32)[C@H]1O (mixture of isomers)
T: CC(CCc1cc(F)ccc1O)N[C@@H]1CCn2c(=O)[nH]c3cccc(c32)[C@H]1O (single isomer, unassigned) [Example 7b]
Input: # desc sort on EC50 across 5 compounds Thanks in advance for listing the labels in the requested order.
Output: R, S, Q, P, T
(R: 198 nM, S: 37.1 nM, Q: 17.3 nM, P: 1.21 nM, T: 0.3 nM)

a: CC(CCc1ccc(O)cc1)N[C@@H]1CCn2c(=O)[nH]c3cccc(c32)[C@H]1O (single isomer, unassigned) [Example 2a]
b: COc1ccc(CCC(C)NC2CCn3c(=O)[nH]c4cccc(c43)C2O)cc1 (centres unmarked)
c: CC(CCc1ccccc1)N[C@@H]1CCn2c(=O)[nH]c3cccc(c32)[C@H]1O (single isomer, unassigned) [Example 9b]
Input: Parameters: sort_field (EC50), sort_dir (desc). Output spec: a listing of the labels in the requested order.
Output: c, b, a
(c: 179 nM, b: 20.3 nM, a: 13.4 nM)
